test: in vivo; conditions: Sprague-Dawley, rat, po, 15 mg/kg
recorded metric: Cmax at 24 h

Cc1cnc(Nc2ccc(OCCCCCCC(=O)NO)cc2)nc1Nc1cccc(S(=O)(=O)NC(C)(C)C)c1: 93.3 ng/mL

Pending compound:
Query block: # lookup: Cmax at 24 h of `Cc1cnc(Nc2ccc(OCCCCCCC(=O)NO)c(F)c2)nc1Nc1cccc(S(=O)(=O)NC(C)(C)C)c1`
Result block: 79.1 ng/mL

----------
Task for the reader: assign each of the following compounds its reported pIC50.
test system: MCF7; experiment: cells; assay type: functional, cell-based; details: Homo sapiens, MCF7, 72 h
Give bare numbers, as −log10 of the molar value.

Cc1cnc(Nc2ccc(OCCCCCCC(=O)NO)c(F)c2)nc1Nc1cccc(S(=O)(=O)NC(C)(C)C)c1: 5.70

Provide pIC50 for all items below, preserving their order.
1. COc1cc(Nc2ncc(C)c(Nc3cccc(S(=O)(=O)NC(C)(C)C)c3)n2)ccc1OCCCCCCC(=O)NO
2. Cc1cnc(Nc2ccc(OCCCCCCC(=O)NO)c(Br)c2)nc1Nc1cccc(S(=O)(=O)NC(C)(C)C)c1

Result block:
1. 5.33
2. 5.16

----------
biological target: Histone deacetylase 2 (Homo sapiens)
Sequence (Q92769 whole entry): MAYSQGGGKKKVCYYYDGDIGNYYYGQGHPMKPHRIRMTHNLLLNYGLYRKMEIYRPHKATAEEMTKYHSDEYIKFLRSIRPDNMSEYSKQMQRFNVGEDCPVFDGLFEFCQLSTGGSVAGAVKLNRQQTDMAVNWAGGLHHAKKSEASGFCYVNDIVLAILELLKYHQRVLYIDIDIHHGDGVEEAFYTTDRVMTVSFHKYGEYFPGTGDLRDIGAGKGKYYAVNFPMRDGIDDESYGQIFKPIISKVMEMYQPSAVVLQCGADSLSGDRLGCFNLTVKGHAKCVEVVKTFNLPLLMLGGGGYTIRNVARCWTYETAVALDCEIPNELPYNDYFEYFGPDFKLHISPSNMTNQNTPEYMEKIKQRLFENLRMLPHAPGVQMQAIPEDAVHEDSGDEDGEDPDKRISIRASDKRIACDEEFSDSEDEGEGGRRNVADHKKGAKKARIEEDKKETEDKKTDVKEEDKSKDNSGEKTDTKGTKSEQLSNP
recorded metric: IC50
A bare number is not enough; add the unit after it.

Query block: # lookup: IC50 of `Cc1cnc(Nc2ccc(OCCCCCCC(=O)NO)cc2)nc1Nc1cccc(S(=O)(=O)NC(C)(C)C)c1`
Result block: 303 nM

----------
tested on: A549; assay: cells; format: functional, cell-based; conditions: Homo sapiens, A549, 72 h
recorded metric: pIC50
Give bare numbers, as −log10 of the molar value.

Cc1cnc(Nc2ccc(OCCCCCCC(=O)NO)cc2)nc1Nc1cccc(S(=O)(=O)NC(C)(C)C)c1: 6.14
Cc1cnc(Nc2ccc(OCCCCCC(=O)NO)cc2)nc1Nc1cccc(S(=O)(=O)NC(C)(C)C)c1: 5.63
Cc1cnc(Nc2ccc(OCCCCCC(=O)NO)c(C(F)(F)F)c2)nc1Nc1cccc(S(=O)(=O)NC(C)(C)C)c1: 5.54
Cc1cnc(Nc2ccc(OCCCCCCCC(=O)NO)cc2)nc1Nc1cccc(S(=O)(=O)NC(C)(C)C)c1: 5.53
COc1cc(Nc2ncc(C)c(Nc3cccc(S(=O)(=O)NC(C)(C)C)c3)n2)ccc1OCCCCCCC(=O)NO: 5.83
Cc1cnc(Nc2ccc(OCCCCCC(=O)NO)c(Cl)c2)nc1Nc1cccc(S(=O)(=O)NC(C)(C)C)c1: 5.69

Provide pIC50 for all items below, preserving their order.
1. Cc1cnc(Nc2ccc(OCCCCCCC(=O)NO)c(Cl)c2)nc1Nc1cccc(S(=O)(=O)NC(C)(C)C)c1
2. Cc1cnc(Nc2ccc(OCCCCCCC(=O)NO)c(F)c2)nc1Nc1cccc(S(=O)(=O)NC(C)(C)C)c1
3. Cc1cnc(Nc2ccc(OCCCCCCC(=O)NO)c(Br)c2)nc1Nc1cccc(S(=O)(=O)NC(C)(C)C)c1
4. Cc1cc(Nc2ncc(C)c(Nc3cccc(S(=O)(=O)NC(C)(C)C)c3)n2)ccc1OCCCCCCC(=O)NO
5. Cc1cnc(Nc2ccc(OCCCCCCC(=O)NO)c(C(F)(F)F)c2)nc1Nc1cccc(S(=O)(=O)NC(C)(C)C)c1

Result block:
1: 5.84; 2: 5.90; 3: 5.67; 4: 5.51; 5: 5.65
